Cited source: the supplement of paper PMC5998384

Tested on: HeLa Kyoto
Assay: solubility change mitosis vs G1/S (difference of NP-40 vs SDS log2 ratios) (log2 ratio difference); higher = more soluble in mitosis
Entry flag: yes (1) if solubility change mitosis (log2) reaches 0.006; no (0) if it does not.

## Task Given the entry MKKVRLKELESRLQQVDGFEKPKLLLEQYPTRPHIAACMLYTIHNTYDDIENKVVADLGCGCGVLSIGTAMLGAGLCVGFDIDEDALEIFNRNAEEFELTNIDMVQCDVCLLSNRMSKSFDTVIMNPPFGTKNNKGTDMAFLKTALEMARTAVYSLHKSSTREHVQKKAAEWKIKIDIIAELRYDLPASYKFHKKKSVDIEVDLIRFSF [METTL5] , answer whether its solubility change mitosis (log2) meets or surpasses 0.006.
## Result no (0)

## Task Given the entry MGASARLLRAVIMGAPGSGKGTVSSRITTHFELKHLSSGDLLRDNMLRGTEIGVLAKAFIDQGKLIPDDVMTRLALHELKNLTQYSWLLDGFPRTLPQAEALDRAYQIDTVINLNVPFEVIKQRLTARWIHPASGRVYNIEFNPPKTVGIDDLTGEPLIQREDDKPETVIKRLKAYEDQTKPVLEYYQKKGVLETFSGTETNKIWPYVYAFLQTKVPQRSQKASVTP [AK3] , answer whether its solubility change mitosis (log2) meets or surpasses 0.006.
## Result yes (1)

## Task Given the entry MAPSGSLAVPLAVLVLLLWGAPWTHGRRSNVRVITDENWRELLEGDWMIEFYAPWCPACQNLQPEWESFAEWGEDLEVNIAKVDVTEQPGLSGRFIITALPTIYHCKDGEFRRYQGPRTKKDFINFISDKEWKSIEPVSSWFGPGSVLMSSMSALFQLSMWIRTCHNYFIEDLGLPVWGSYTVFALATLFSGLLLGLCMIFVADCLCPSKRRRPQPYPYPSKKLLSESAQPLKKVEEEQEADEEDVSEEEAESKEGTNKDFPQNAIRQRSLGPSLATDKS [TMX1] , answer whether its solubility change mitosis (log2) meets or surpasses 0.006.
## Result no (0)

## Task Given the entry MSNRVVCREASHAGSWYTASGPQLNAQLEGWLSQVQSTKRPARAIIAPHAGYTYCGSCAAHAYKQVDPSITRRIFILGPSHHVPLSRCALSSVDIYRTPLYDLRIDQKIYGELWKTGMFERMSLQTDEDEHSIEMHLPYTAKAMESHKDEFTIIPVLVGALSESKEQEFGKLFSKYLADPSNLFVVSSDFCHWGQRFRYSYYDESQGEIYRSIEHLDKMGMSIIEQLDPVSFSNYLKKYHNTICGRHPIGVLLNAITELQKNGMNMSFSFLNYAQSSQCRNWQDSSVSYAAGALTVH [MEMO1] , answer whether its solubility change mitosis (log2) meets or surpasses 0.006.
## Result no (0)

## Task Given the entry MAGTGLVAGEVVVDALPYFDQGYEAPGVREAAAALVEEETRRYRPTKNYLSYLTAPDYSAFETDIMRNEFERLAARQPIELLSMKRYELPAPSSGQKNDITAWQECVNNSMAQLEHQAVRIENLELMSQHGCNAWKVYNENLVHMIEHAQKELQKLRKHIQDLNWQRKNMQLTAGSKLREMESNWVSLVSKNYEIERTIVQLENEIYQIKQQHGEANKENIRQDF [BCAS2] , answer whether its solubility change mitosis (log2) meets or surpasses 0.006.
## Result yes (1)

## Task Given the entry MENQVLTPHVYWAQRHRELYLRVELSDVQNPAISITENVLHFKAQGHGAKGDNVYEFHLEFLDLVKPEPVYKLTQRQVNITVQKKVSQWWERLTKQEKRPLFLAPDFDRWLDESDAEMELRAKEEERLNKLRLESEGSPETLTNLRKGYLFMYNLVQFLGFSWIFVNLTVRFCILGKESFYDTFHTVADMMYFCQMLAVVETINAAIGVTTSPVLPSLIQLLGRNFILFIIFGTMEEMQNKAVVFFVFYLWSAIEIFRYSFYMLTCIDMDWKVLTWLRYTLWIPLYPLGCLAEAVSVIQSIPIFNETGRFSFTLPYPVKIKVRFSFFLQIYLIMIFLGLYINFRHLYKQRRRRYGQKKKKIH [HACD3] , answer whether its solubility change mitosis (log2) meets or surpasses 0.006.
## Result no (0)

###

Test system: HeLa Kyoto
Assay: thermal stability score vs G1/S (z-score of summed log2 fold changes over temperatures); higher = more thermally stable than in G1/S
Conditions: cell cycle stage: early G1 (4.5 h after nocodazole release)
result-type: thermal stability score
Write the value as a bare number.

Per the records, this sequence ( MSSPSPGKRRMDTDVVKLIESKHEVTILGGLNEFVVKFYGPQGTPYEGGVWKVRVDLPDKYPFKSPSIGFMNKIFHPNIDEASGTVCLDVINQTWTALYDLTNIFESFLPQLLAYPNPIDPLNGDAAAMYLHRPEEYKQKIKEYIQKYATEEALKEQEEGTGDSSSESSMSDFSEDEAQDMEL [UBE2H] ) has thermal stability score equal to 0.268

Per the records, this sequence ( MAAPSGGVNCEEFAEFQELLKVMRTIDDRIVHELNTTVPTASFAGKIDASQTCKQLYESLMAAHASRDRVIKNCIAQTSAVVKNLREEREKNLDDLTLLKQLRKEQTKLKWMQSELNVEEVVNDRSWKVFNERCRIHFKPPKNE [CCDC58] ) has thermal stability score equal to -0.935

Per the records, this sequence ( MESVSCSAAAVRTGDMESQRDLSLVPERLQRREQERQLEVERRKQKRQNQEVEKENSHFFVATFVRERAAVEELLERAESVERLEEAASRLQGLQKLINDSVFFLAAYDLRQGQEALARLQAALAERRRGLQPKKRFAFKTRGKDAASSTKVDAAPGIPPAVESIQDSPLPKKAEGDLGPSWVCGFSNLESQVLEKRASELHQRDVLLTELSNCTVRLYGNPNTLRLTKAHSCKLLCGPVSTSVFLEDCSDCVLAVACQQLRIHSTKDTRIFLQVTSRAIVEDCSGIQFAPYTWSYPEIDKDFESSGLDRSKNNWNDVDDFNWLARDMASPNWSILPEEERNIQWD [TBCC] ) has thermal stability score equal to 0.786

Per the records, this sequence ( MDGTRTSLDIEEYSDTEVQKNQVLTLEEWQDKWVNGKTAFHQEQGHQLLKKHLDTFLKGKSGLRVFFPLCGKAVEMKWFADRGHSVVGVEISELGIQEFFTEQNLSYSEEPITEIPGTKVFKSSSGNISLYCCSIFDLPRTNIGKFDMIWDRGALVAINPGDRKCYADTMFSLLGKKFQYLLCVLSYDPTKHPGPPFYVPHAEIERLFGKICNIRCLEKVDAFEERHKSWGIDCLFEKLYLLTEK [TPMT] ) has thermal stability score equal to -0.85

Per the records, this sequence ( MLAARLVCLRTLPSRVFHPAFTKASPVVKNSITKNQWLLTPSREYATKTRIGIRRGRTGQELKEAALEPSMEKIFKIDQMGRWFVAGGAAVGLGALCYYGLGLSNEIGAIEKAVIWPQYVKDRIHSTYMYLAGSIGLTALSAIAISRTPVLMNFMMRGSWVTIGVTFAAMVGAGMLVRSIPYDQSPGPKHLAWLLHSGVMGAVVAPLTILGGPLLIRAAWYTAGIVGGLSTVAMCAPSEKFLNMGAPLGVGLGLVFVSSLGSMFLPPTTVAGATLYSVAMYGGLVLFSMFLLYDTQKVIKRAEVSPMYGVQKYDPINSMLSIYMDTLNIFMRVATMLATGGNRKK [GHITM] ) has thermal stability score equal to -2.96

Per the records, this sequence ( MAAGGRMEDGSLDITQSIEDDPLLDAQLLPHHSLQAHFRPRFHPLPTVIIVNLLWFIHLVFVVLAFLTGVLCSYPNPNEDKCPGNYTNPLKVQTVIILGKVILWILHLLLECYIQYHHSKIRNRGYNLIYRSTRHLKRLALMIQSSGNTVLLLILCMQHSFPEPGRLYLDLILAILALELICSLICLLIYTVKIRRFNKAKPEPDILEEEKIYAYPSNITSETGFRTISSLEEIVEKQGDTIEYLKRHNALLSKRLLALTSSDLGCQPSRT [TMEM192] ) has thermal stability score equal to 0.271

###

Test system: HeLa Kyoto
Assay: melting temperature (median over replicates), in situ; higher = more thermally stable
Details: cell cycle stage: mitosis
result-type: melting temperature (°C)
Field format: number, assumed °C, no unit text.

Per the records, this sequence ( MRRAWILLTLGLVACVSAESRAELTSDKDMYLDNSSIEEASGVYPIDDDDYASASGSGADEDVESPELTTSRPLPKILLTSAAPKVETTTLNIQNKIPAQTKSPEETDKEKVHLSDSERKMDPAEEDTNVYTEKHSDSLFKRTEVLAAVIAGGVIGFLFAIFLILLLVYRMRKKDEGSYDLGERKPSSAAYQKAPTKEFYA [SDC2] ) has melting temperature equal to 59.2

Per the records, this sequence ( MSSARFDSSDRSAWYMGPVSRQEAQTRLQGQRHGMFLVRDSSTCPGDYVLSVSENSRVSHYIINSLPNRRFKIGDQEFDHLPALLEFYKIHYLDTTTLIEPAPRYPSPPMGSVSAPNLPTAEDNLEYVRTLYDFPGNDAEDLPFKKGEILVIIEKPEEQWWSARNKDGRVGMIPVPYVEKLVRSSPHGKHGNRNSNSYGIPEPAHAYAQPQTTTPLPAVSGSPGAAITPLPSTQNGPVFAKAIQKRVPCAYDKTALALEVGDIVKVTRMNINGQWEGEVNGRKGLFPFTHVKIFDPQNPDENE [CRKL] ) has melting temperature equal to 53.4

Per the records, this sequence ( MHRGVGPAFRVVRKMAASGAEPQVLVQYLVLRKDLSQAPFSWPAGALVAQACHAATAALHTHRDHPHTAAYLQELGRMRKVVLEAPDETTLKELAETLQQKNIDHMLWLEQPENIATCIALRPYPKEEVGQYLKKFRLFK [PTRHD1] ) has melting temperature equal to 52.6

Per the records, this sequence ( MTLIEGVGDEVTVLFSVLACLLVLALAWVSTHTAEGGDPLPQPSGTPTPSQPSAAMAATDSMRGEAPGAETPSLRHRGQAAQPEPSTGFTATPPAPDSPQEPLVLRLKFLNDSEQVARAWPHDTIGSLKRTQFPGREQQVRLIYQGQLLGDDTQTLGSLHLPPNCVLHCHVSTRVGPPNPPCPPGSEPGPSGLEIGSLLLPLLLLLLLLLWYCQIQYRPFFPLTATLGLAGFTLLLSLLAFAMYRP [TMUB1] ) has melting temperature equal to 52.5
